ASSAYED TARGET: Gal(b1-4)GlcNAc(b1-2)Man(a1-6)[GlcNAc(b1-2)Man(a1-3)]Man(b1-4)GlcNAc(b1-4)GlcNAc
METHOD DESCRIPTION: glycan array binding signal (z-score within array); higher = stronger binding
PROTOCOL CONDITIONS: glycan notation: IUPAC condensed, linker removed
The full list was thinned out, with the strongest signals kept by preference.
ASSAY METRIC: glycan array binding signal (z-score)
Answer with a bare number; do not write a unit.

BINDER	NUMERIC VALUE
SBD (Rhizopus oryzae), P07683 (protein) ASIPSSASVQLDSYNYDGSTFSGKIYVKNIAYSKKVTVVYADGSDNWNNNGNIIAASFSGPISGSNYEYWTFSASVKGIKEFYIKYEVSGKTYYDNNNSANYQVS	-0.081

Challenge: Fill blank: measured glycan array binding signal (z-score) of the binder Pwp6 (Candida glabrata) (protein) MGSSHHHHHHSSGLVPRGSHMASANLPKLTNICQIPDNVKKTSGFKGEIRRIGLFPPGGDYTYLLKFPSTGSTASDTISLTTKPQLSTSGWFPSLFGHTYFIKADLLVYMVAYFVPTETGEYTFKLVNSDDAAVMYVGNPSAFPCGSIDTWPEPRKEDINVCDKISASTKLYMEKGLAYPVRLVWYNGGGDGQFNAQFIDPSGTTHTDWNGYVWQYDACTDCDYK is ____.
Response given: 0.606
